Where these numbers come from: PubChem BioAssay AID1159580

# experiment_notes: chemical genetic growth profiling, strain panel (AID 1159580);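 note: tested at 20 µM; growth read once vehicle control cultures reached saturation at 30 °C; 1 = growth at the plate median or of vehicle wells; lower values mean less growth of the strain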
# condition: S. cerevisiae deletion strains, growth OD, locus YLR113W, strain HOG1
The whole screen tested about 5,500 compounds, of which about 2,000 (36%) were called active. Inconclusive results (about 18%) are left out. Cut-off read from the data, not from the text of the source: active = normalized growth mostly below about 0.91 (no sharp cut-off); inconclusive = no clear call, values can overlap the other calls; inactive = mostly above about 0.92. Some of the results follow.
Assign a class; possible classes are 1 for active, -1 for inactive

Hey, what did the test say about COc1cccc(-c2cc(=O)c3cc(OC)ccc3o2)c1 ?
-1

Hey, what did the test say about COc1ccc(-c2cc(=O)c3cc(OC)ccc3o2)cc1 ?
-1

Hey, what did the test say about CCC(/C=C/[C@@H](C)[C@H]1CCC2C3CC=C4C[C@@H](O)CC[C@]4(C)C3CC[C@@]21C)C(C)C (some centres undefined) ?
-1

Hey, what did the test say about CCCCCCCCCCCCCCCCCCCCCCO ?
-1

Hey, what did the test say about CC(C)(O)[C@@H]1CC[C@](C)([C@H]2[C@@H](O)C[C@@]3(C)C4C[C@H](O[C@@H]5O[C@H](CO)[C@@H](O)[C@H](O)[C@H]5O)C5C(C)(C)[C@@H](O[C@@H]6OC[C@@H](O)[C@H](O)[C@H]6O)CC[C@@]56C[C@@]46CC[C@]23C)O1 (some centres undefined) ?
-1

Hey, what did the test say about CCC(CCC(C)[C@H]1CCC2C3CC=C4C[C@@H](O)CC[C@]4(C)C3CC[C@@]21C)C(C)C (some centres undefined) ?
-1

Hey, what did the test say about CN(C)CC/C=C1/c2ccccc2COc2ccccc21 ?
-1

Hey, what did the test say about CCn1cc(C(=O)O)c(=O)c2cc(F)c(N3CCNCC3)cc21 ?
-1

Hey, what did the test say about N#CCCCCOc1ccc2c(=O)cc(-c3ccccc3)oc2c1 ?
-1

Hey, what did the test say about Cc1ccc(C(O)(c2ccccc2)c2ccccc2)c2ccccc12 ?
-1

Hey, what did the test say about O=c1cc(-c2ccc(O)cc2)oc2ccc(O)cc12 ?
-1

Hey, what did the test say about COc1ccc(-c2cc(=O)c3c(OC)c(OC)c(OC)c(OC)c3o2)cc1 ?
-1

Hey, what did the test say about O=C1CN2Cc3c(ccc(Cl)c3Cl)N=C2N1 ?
-1

Hey, what did the test say about CCCCCCCCCCCCCCCC[n+]1ccccc1 ?
1

Hey, what did the test say about C[C@@H]1CC[C@@]2(OC1)OC1C(O)C3C4CC[C@H]5C[C@H](O[C@@H]6O[C@H](CO)[C@H](O[C@@H]7O[C@H](CO)[C@@H](O)[C@H](O[C@@H]8OC[C@@H](O)[C@H](O)[C@H]8O)[C@H]7O[C@@H]7O[C@H](CO)[C@H](O)[C@H](O[C@@H]8O[C@H](CO)[C@@H](O)[C@H](O)[C@H]8O)[C@H]7O)[C@H](O)[C@H]6O)[C@H](O)C[C@]5(C)C4CC[C@]3(C)C1[C@@H]2C (some centres undefined) ?
1

Hey, what did the test say about CN(C)CCC=C1c2ccccc2C=Cc2ccccc21 ?
-1

Hey, what did the test say about CN(C(=O)N(C)c1ccc(Cl)cc1C(=O)c1ccccc1Cl)c1ccc(Cl)cc1C(=O)c1ccccc1Cl ?
1

Hey, what did the test say about CC(=O)C1CCC2C3CC=C4CC(OS(=O)(=O)O)CC[C@]4(C)C3CC[C@]12C (some centres undefined) ?
-1

Hey, what did the test say about COc1ccc(C(=O)/C=C/c2ccccc2)cc1 ?
1

Hey, what did the test say about C=C1C(N)CC2CC1C2(C)C (centres undefined) ?
-1

Hey, what did the test say about O=C1Nc2ccccc2/C1=N/N=C\c1ccccc1Cl ?
1

Hey, what did the test say about COc1cc([C@@H]2c3cc4c(cc3C(O[C@@H]3O[C@@H]5CO[C@@H](c6cccs6)OC5[C@H](O)[C@H]3O)C3COC(=O)[C@@H]32)OCO4)cc(OC)c1O (some centres undefined) ?
-1

Hey, what did the test say about Clc1ccc(-c2csc(Nc3ccccc3)n2)s1 ?
1

Hey, what did the test say about COc1cc(NC(=S)Nc2ccccc2OC(F)(F)F)cc(C(F)(F)F)c1 ?
-1

Hey, what did the test say about O=c1oc2ccccc2c(O)c1Cc1c(O)c2ccccc2oc1=O ?
-1

Hey, what did the test say about O=C(O)/C=C(\CC(=O)O)C(=O)O ?
-1

Hey, what did the test say about CN(N=O)C(=O)N[C@@H]1[C@@H](O)[C@H](O)[C@@H](CO)O[C@@H]1O ?
-1

Hey, what did the test say about OC1C(O)C(O)C(O)C(O)C1O (centres undefined) ?
-1

Hey, what did the test say about COc1ccc(C2CC(c3ccccc3)=Nc3ccccc3S2)cc1OC (centres undefined) ?
-1

Hey, what did the test say about CC(=O)[C@H]1CCC2C3CC=C4C[C@@H](O)CC[C@]4(C)C3CC[C@@]21C (some centres undefined) ?
-1

Hey, what did the test say about CNCCC=C1c2ccccc2CCc2ccccc21 ?
-1

Hey, what did the test say about O=C(O)c1cn(-c2ccc(F)cc2)c2cc(N3CCNCC3)c(F)cc2c1=O ?
-1

Hey, what did the test say about NCC(=O)CCC(=O)O ?
-1

Hey, what did the test say about O=C1CCc2ccc(OCCCCN3CCN(c4cccc(Cl)c4Cl)CC3)cc2N1 ?
-1

Hey, what did the test say about Clc1ccccc1N/N=C\Cc1nnnn1-c1ccccc1 ?
-1

Hey, what did the test say about O=C1c2c(O)ccc(O)c2C(=O)c2c(NCCNCCO)ccc(NCCNCCO)c21 ?
1

Hey, what did the test say about O=C1CCc2cc(OCCCCc3nnnn3C3CCCCC3)ccc2N1 ?
-1

Hey, what did the test say about CC1=NCCc2c1[nH]c1cc(O)ccc21 ?
-1

Hey, what did the test say about CC1(C)O[C@@H]2CC3C4C[C@H](F)C5=CC(=O)C=C[C@]5(C)[C@@]4(F)[C@@H](O)C[C@]3(C)[C@]2(C(=O)CO)O1 (some centres undefined) ?
-1
